System: HT-29
PROTOCOL SUMMARY: NCI tumour cell line growth inhibition, 48 h
Active and inactive are the calls of the source. No stated cut-off is given here; in the data, active = GI50 up to about 1.1 µM and inactive = higher.
RECORDED ENDPOINT: GI50

Check out these entries, answers already filled in.
- MOLECULE: "CC(=O)c1cccc(NC(=O)C(=O)C(c2cnc3ccc([N+](=O)[O-])cc3n2)[N+](=O)[O-])c1 (stereo not drawn)"
  RESULT: "> 100 µM (inactive)"
- MOLECULE: "CSC1=C(C(=O)Nc2ccccc2)C(N)=NC1=O"
  RESULT: "> 100 µM (inactive)"

Field: next molecule
Output GI50 of COc1ccc2[nH]c3c(C)c4c(c(C)c3c2c1)CN(C)CC4
6.47 µM (inactive)

----------
The entries below come with measured GI50 values attached.
Tested on: T47D
PROTOCOL SUMMARY: NCI tumour cell line growth inhibition, 48 h
Activity calls are given as the source filed them. No stated cut-off is given here; in the data, active = GI50 up to about 1.1 µM and inactive = higher.

In the examples that follow, each entry is paired with its recorded GI50.
- COMPOUND: "COc1ccc2c(c1)[n+]([O-])c1cc(C#N)ccc1[n+]2[O-]"
  TARGET ENTITY: "T47D"
  RECORDED ENDPOINT: "GI50"
  RESULT: "11.7 µM (inactive)"
- COMPOUND: "Nc1nc2c(ncn2C2C=CC(COS(N)(=O)=O)C2)c(=O)[nH]1 (stereo not given)"
  TARGET ENTITY: "T47D"
  RECORDED ENDPOINT: "GI50"
  RESULT: "> 100 µM (inactive)"
- COMPOUND: "CCCCCCCCCCCCO[PH](=O)OCCCCCCCCCCCC"
  TARGET ENTITY: "T47D"
  RECORDED ENDPOINT: "GI50"
  RESULT: "> 100 µM (inactive)"

Given CC(=O)N(CN1C(=O)CCC1C(=O)O)c1ccc(C)cc1 (stereo not given) , respond with its GI50.
> 100 µM (inactive)

Tell me measured GI50 for CCN(CC)CCCC(C)Nc1ccnc2cc3ccccc3cc12 (stereo not given) please.
12.8 µM (inactive)

----------
Tested on: HOP-92
PROTOCOL SUMMARY: NCI tumour cell line growth inhibition, 48 h
The source made the active and inactive calls. Cut-off read from the data, not from the text of the source: active = GI50 up to about 1.1 µM and inactive = higher.
Entries and their GI50 values follow.

- MOLECULE: "CC(C)(C)OC(=O)N1C(c2cccnc2)=CC[C@H]2C3CC=C(c4cccnc4)[C@@]3(C)CC[C@@H]21 (stereo partly specified)"
  TARGET ENTITY: "HOP-92"
  RECORDED ENDPOINT: "GI50"
  RESULT: "2.52 µM (inactive)"
- MOLECULE: "CC1=NNC(=O)C1C1C(=O)NN=C(c2c[nH]c3ccccc23)C1Br (stereo unspecified)"
  TARGET ENTITY: "HOP-92"
  RECORDED ENDPOINT: "GI50"
  RESULT: "> 100 µM (inactive)"
- MOLECULE: "CC(=O)c1cccc(NC(=O)C(=O)C(c2cnc3ccc([N+](=O)[O-])cc3n2)[N+](=O)[O-])c1 (stereo unspecified)"
  TARGET ENTITY: "HOP-92"
  RECORDED ENDPOINT: "GI50"
  RESULT: "> 100 µM (inactive)"
- MOLECULE: "CCOC(=O)CCC(NC(=O)c1ccc(OCc2nc3cc(C(F)(F)F)ccc3nc2-c2ccccc2)cc1)C(=O)OCC (stereo unspecified)"
  TARGET ENTITY: "HOP-92"
  RECORDED ENDPOINT: "GI50"
  RESULT: "79.6 µM (inactive)"
- MOLECULE: "COc1ccc(/C=C/C(=O)c2cc(C(C)(C)C)c(O)c(C(C)(C)C)c2)cc1OC"
  TARGET ENTITY: "HOP-92"
  RECORDED ENDPOINT: "GI50"
  RESULT: "16.6 µM (inactive)"
- MOLECULE: "CCC1=NC(N/N=C/c2ccco2)=N/C1=C\\c1ccco1"
  TARGET ENTITY: "HOP-92"
  RECORDED ENDPOINT: "GI50"
  RESULT: "> 100 µM (inactive)"

Indicate the recorded GI50 value for this molecule: CCOC(=O)Oc1ccc2c(c1)c(=O)c1c(NCCCN(CC)CC)ccc3nnn2c31
6.76 µM (inactive)

// Input: CSC1(C(=O)O)C2CCC3C2CCC31 (stereo unspecified) . Output its GI50 only.
> 100 µM (inactive)

Kindly indicate its recorded GI50. Item: CCN(C(C)=O)c1cnc(/C=N/NC(N)=S)c2ccccc12
> 40.4 µM (inactive)

Give the reported value of GI50 for this record: CCCCCc1c2nc(c(CCCCC)c3ccc([nH]3)c(CCCCC)c3nc(c(CCCCC)c4ccc1[nH]4)C=C3)C=C2
> 100 µM (inactive)

Report GI50 for CN(C)N1C(=O)SCC(c2ccccc2)(c2ccccc2)C1=O
> 100 µM (inactive)

Supply measured GI50 of N=C(N)NS(=O)(=O)c1ccc(NC(=O)c2cccc3c(NNc4ccc(C(=O)O)cc4)c4ccccc4nc23)cc1 in your reply.
24.2 µM (inactive)

Return value of GI50 for input CC(C)[C@](O)(C(=O)OCC1=CC[N+]2([O-])CC[C@@H](O)[C@@H]12)[C@H](C)O (stereo partly specified) [INDICINE N-OXIDE] , no commentary.
> 9730 µM (inactive)

----------
Test system: A549
PROTOCOL SUMMARY: NCI tumour cell line growth inhibition, 48 h
Activity calls are given as the source filed them. No stated cut-off is given here; in the data, active = GI50 up to about 1.1 µM and inactive = higher.
Can you answer with just one of these options? active, inactive

- COMPOUND: "COc1cc2cc(C(=O)N3CC(COS(C)(=O)=O)c4ccc(O)cc43)[nH]c2c(OC)c1OC (stereo not drawn)"
  ANSWER LABEL: "active"
- COMPOUND: "Nc1nc(O)c2[nH]nnc2n1"
  ANSWER LABEL: "inactive"
- COMPOUND: "CC(C)(C)c1cc(C2NC(=O)NC2=O)cc(C(C)(C)C)c1O (stereo not drawn)"
  ANSWER LABEL: "inactive"
- COMPOUND: "N=C(N)NS(=O)(=O)c1ccc(NC(=O)c2cccc3c(NNc4ccc(C(=O)O)cc4)c4ccccc4nc23)cc1"
  ANSWER LABEL: "inactive"
- COMPOUND: "CC(=O)C(=O)NC1/C=C(C)\\C=C/C(O)C/C=C(C)\\C=C/C(O)CC2OC(=O)C1(C)C(=O)C2C (stereo not drawn)"
  ANSWER LABEL: "inactive"

Name the outcome recorded for COc1c(O)c2c(c3cc(C(=O)N4CCc5c4c(O)c(OC)c4[nH]c(C(=O)N6CC7CC78C6=CC(=O)c6[nH]cc(C)c68)cc54)[nH]c13)CCN2C(N)=O (stereo not drawn) in the assay.
active

Which outcome was assigned to CC(=O)OCc1cc(OC(C)=O)cnc1COC(C)=O in this test?
inactive

Check the results log: what was the call for CCOC(=O)C1CC/C(=C(/C#N)C(=O)OC)N1 (stereo not drawn) ?
inactive

Entry O=c1c2cc(I)ccc2nc(SCc2n[nH]c(=S)o2)n1Cc1ccccc1 : call = ?
inactive

Hi, do you know how C(=C(c1ccc(OC2CCCCO2)cc1)c1ccc(OC2CCCCO2)cc1)c1ccccc1 (stereo not drawn) came out in this test?
active

Any idea what this test logged for COc1cc(C2C(Cl)C(=O)N2NC(=O)c2ccc(NC(C)=O)cc2)cc(OC)c1OC (stereo not drawn) ?
inactive

What was the test verdict on COc1cccc2c1OC1(C=C2)Oc2ccccc2C(=O)N1C (stereo not drawn) ?
inactive

What classification did COCn1cnc2c(=O)nc(SC)n(-c3ccccc3)c21 end up with in this test?
inactive

----------
Tested on: ACHN
PROTOCOL SUMMARY: NCI tumour cell line growth inhibition, 48 h
Calls of active or inactive are those of the source. Rule as the data show it: active = GI50 up to about 1.1 µM and inactive = higher.
# valid calls are yes for active, no for inactive; nothing else

For orientation, consider the following solved cases.
- COMPOUND: "CC(=O)O[C@H]1CC[C@@]2(C)C(=CC[C@H]3[C@@H]4C[C@H](N5CCN(C)CC5)[C@H](OC(C)=O)[C@@]4(C)CC[C@@H]32)C1"
  ANSWER LABEL: "no"
- COMPOUND: "C[Si](C)(C)/N=C1\\N2C(=NC1(C(F)(F)F)C(F)(F)F)Sc1ccccc12"
  ANSWER LABEL: "no"
- COMPOUND: "COc1ccc2c(=O)cc(-c3ccc(OC)c(OC)c3OC)oc2c1"
  ANSWER LABEL: "no"
- COMPOUND: "Cc1c2oc(=O)c(C#N)cc2c2ccccn12"
  ANSWER LABEL: "no"
- COMPOUND: "CC(C)(C)c1cc(C2NC(=O)NC2=O)cc(C(C)(C)C)c1O (centres undefined)"
  ANSWER LABEL: "no"

Outcome? COc1ccc(-c2nc(SCC(=O)NNC(=S)Nc3ccccc3)[nH]c2-c2ccc(OC)cc2)cc1
no

// param item: CC1(C)OC2COC(c3n[nH]c4c(=O)[nH]c(=O)[nH]c34)C2O1 (centres undefined) ; yields the recorded call
no
